protocolConditions: 355 K; 101.33 kPa; Liquid; Laser flash apparatus
propertyMeasured: thermal conductivity (W/m/K)
The answer is to be given in W/m/K; state only the numeric part.

thermal conductivity measured on CCCCCCCCCC(=O)OCC(COC(=O)CCCCCCCCC)OC(=O)CCCCCCCCC [1,2,3-propanetriyl tridecanoate] = 0.152

Notebook: CCCCCCCC(=O)OCC(COC(=O)CCCCCCC)OC(=O)CCCCCCC [1,2,3-propanetriol trioctanoate] , thermal conductivity read as 0.149

Lab note: CCCCCCCCCCCCCC(=O)OCC(COC(=O)CCCCCCCCCCCCC)OC(=O)CCCCCCCCCCCCC [1,2,3-propanetriyl tri(tetradecanoate)] gave thermal conductivity of 0.17

Data point: CCCCCCCCCCCC(=O)OCC(COC(=O)CCCCCCCCCCC)OC(=O)CCCCCCCCCCC [1,2,3-propanetriyl tridodecanoate] ; thermal conductivity = 0.16
